# test-target: R120G cryAB (Homo sapiens, UniProt P02511, R120G)
# Sequence (P02511 1-175 R120G): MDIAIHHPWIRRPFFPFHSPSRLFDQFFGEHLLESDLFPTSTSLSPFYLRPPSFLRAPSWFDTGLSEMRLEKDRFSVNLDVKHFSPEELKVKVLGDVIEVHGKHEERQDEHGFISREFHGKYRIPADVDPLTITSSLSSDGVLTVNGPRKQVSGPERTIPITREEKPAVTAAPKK
# experiment-description: Differential scanning fluorimetry (DSF), shift of apparent Tm
# Assay type: binding
# measurement-setup: 100 μM compound; DSF with R120G cryAB
recorded-metric: ACTIVITY (shift in thermal stability at 100 μM) (°C)
Field format: number, assumed °C, no unit text.

Some solved cases for reference:
molecular-string	test-target	recorded-result
CC(C)CCC[C@@H](C)[C@H]1CC[C@H]2[C@@H]3CC[C@H]4C[C@@H](O)CC[C@]4(C)[C@H]3CC[C@]12C	R120G cryAB (Homo sapiens, UniProt P02511, R120G)	−3.0
C[C@H](CCCC(C)(C)O)[C@H]1CC[C@H]2[C@@H]3CC=C4C[C@@H](O)CC[C@]4(C)[C@H]3CC[C@]12C	R120G cryAB (Homo sapiens, UniProt P02511, R120G)	−2.0

// next item, ACTIVITY (shift in thermal stability at 100 μM) requested
Note to self: ACTIVITY (shift in thermal stability at 100 μM) recorded for "CC(C)CCC[C@@H](C)[C@H]1CC[C@H]2[C@@H]3CC=C4C[C@@H](O)CC[C@]4(C)[C@H]3CC[C@]12C" was −1.1
